target: VIPR2 (Homo sapiens); assay: % Activity: inhibition of VIP-induced cAMP elevation and β-arrestin recruitment (Table 2); format: cell-based; design: expressed in transfected cells; host or cells: HEK293 cells transfected with VIPR2 in pCDNA3.1 (as described)
Sequence (P41587 24-438): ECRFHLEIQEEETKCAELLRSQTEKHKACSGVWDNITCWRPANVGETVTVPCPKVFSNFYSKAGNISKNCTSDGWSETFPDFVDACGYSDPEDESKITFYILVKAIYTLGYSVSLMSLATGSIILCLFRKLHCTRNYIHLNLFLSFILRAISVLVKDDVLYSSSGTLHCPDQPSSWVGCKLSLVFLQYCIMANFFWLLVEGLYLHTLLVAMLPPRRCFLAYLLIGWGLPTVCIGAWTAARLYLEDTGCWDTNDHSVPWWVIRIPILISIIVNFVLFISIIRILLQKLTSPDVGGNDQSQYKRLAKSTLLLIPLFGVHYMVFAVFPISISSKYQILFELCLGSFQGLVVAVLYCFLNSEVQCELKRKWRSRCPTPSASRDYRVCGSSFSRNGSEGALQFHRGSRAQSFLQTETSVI
recorded-endpoint: % Activity (%)

Solved entries (count: 2):
1. CCCCNC(=O)c1ccc(S(=O)(=O)NC[C@@H](O)C[C@@H](Cc2ccccc2)C(=O)N[C@H]2c3ccccc3C[C@H]2O)cc1 [Compound X100] : 7.55
2. Cc1ccc([N+](=O)[O-])cc1S(=O)(=O)NC[C@@H](O)C[C@@H](Cc1ccccc1)C(=O)N[C@H]1c2ccccc2C[C@H]1O [P] : 8.85

1 = C#CCNC(=O)[C@H](Cc1ccccc1)C[C@H](O)CNS(=O)(=O)c1ccc([N+](=O)[O-])cc1 [Compound B21A]
2 = O=C(CCCCBr)NC[C@@H](O)C[C@@H](Cc1ccccc1)C(=O)N[C@H]1c2ccccc2C[C@H]1O [Compound A15]
3 = CNc1ccc(S(=O)(=O)NC[C@@H](O)C[C@@H](Cc2ccccc2)C(=O)N[C@H]2c3ccccc3C[C@H]2O)cc1 [Compound X082]
4 = O=C(CCCCl)NC[C@@H](O)C[C@@H](Cc1ccccc1)C(=O)N[C@H]1c2ccccc2C[C@H]1O [Compound A22]
5 = CCNC(=O)[C@@H](Cc1ccccc1)C[C@H](O)CNS(=O)(=O)c1ccc([N+](=O)[O-])cc1 [Compound B16B]
Lookup: Sort by % Activity, descending. Response format: the labels, sorted as the prompt asks.
Found: 4, 1, 2, 3, 5
(4: 18.5%, 1: 3.55%, 2: −0.6%, 3: −1.5%, 5: −14.9%)
